# tested_system: pooled human IgG (human); further: test concentration or dose not given here
# assay_info: cell-based or functional assay
value_kind: Enzyme Activity Endpoint Assay (purified): Fc
Reply with the number and its unit after it.

Q) # lookup: Enzyme Activity Endpoint Assay (purified): Fc of PRT-219 (enzyme) MEVVEVWPYGQNPNGKTEILSQTEDSESLQRLRDIEDFQAEKKKQNVVYTKWLDGVTVDDSDFRKIKDGNTEYYATPLLNGRGFYDINKDFNRDSDKCAAAVAANMFHYWLDRNRDNVDRFLKQNPEKHGIIELPDGQLKLSDFLNTYESDNNYRDKSKLFDFISKNFNGPVWTNKLLDNYINGYGYNYKYGRTIEDPTKNTSKINFFKKVFNEKILTNVHQIFNYNEFSTLLSEALYTGKAIGLSYGPGGLRHSLGHIISVWGADLDADGNVVAIYVTDSDDKKLTIGDERVGLKRYKISTDDEGRARLTAYTETDNTGGQVRGIWTLDTGKQAWADYFDKTEQTGTDQAEQLEHHHHHH
A) 407 ng/µL
